Test system: Rattus norvegicus
Test: Induction of stereotyped gnawling behavior in ip dosed rat assessed as time duration
Format: functional, organism-based
The source made the active and inactive calls. The rule behind the calls is not given here.
Write down one outcome, taken from T = active, F = inactive

> print(dat)
                              record.smiles  classification
1  CN1CCc2cccc3c2[C@H]1Cc1ccc(OC(=O)c2ccccc2)c(OC(=O)c2ccccc2)c1-3               T
2  CN1CCc2cccc3c2[C@H]1Cc1ccc(OC(=O)C(C)(C)C)c(OC(=O)C(C)(C)C)c1-3.Cl               T
3  CC(C)C(=O)Oc1ccc2c(c1OC(=O)C(C)C)-c1cccc3c1[C@@H](C2)N(C)CC3.Cl               T
4  CC(=O)Oc1ccc2c(c1OC(C)=O)-c1cccc3c1[C@@H](C2)N(C)CC3               T

Next, consider the following compound.
Query: Tell me the recorded outcome of this test for CCC(=O)Oc1ccc2c(c1OC(=O)CC)-c1cccc3c1[C@@H](C2)N(C)CC3.Cl .
Response: F
